tested on: 996289-038-R-J1-PDC complex spheroid viability; test: Anticancer human tumor 996289-038-R-J1-PDC patient-derived colon adenocarcinoma cell line growth inhibition [CLK]; details: second compound 3.16 µM; first compound 3.16 µM; stronger effect = lower value;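 note: spheroids exposed to the agents for 7 days before readout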
I'd be grateful if you could share measured viability, T/C for these entries.
Answers are plain numbers, in %.

Would you please look over these solved cases?
1) Nc1ccn(C2OC(CO)C(O)C2(F)F)c(=O)n1 (stereo unspecified) + CNC(=O)c1ccc(Nc2nc(OC3CCCC3)c3c(-c4ccc5nc(C)oc5c4)c[nH]c3n2)c(OC)c1 ... 47.2
2) C=CC(=O)N1CCN(c2nc(=O)n(-c3c(C)ccnc3C(C)C)c3nc(-c4c(O)cccc4F)c(F)cc23)C(C)C1 (stereo unspecified) + CN1CCN(c2cc(C(=O)Nc3cc4cc(-c5cnn(C)c5)ccc4cn3)ccn2)CC1 ... 1.69
3) CC(=O)O[C@H]1C(=O)[C@@]2(C)[C@H]([C@H](OC(=O)c3ccccc3)[C@]3(O)C[C@H](OC(=O)[C@H](O)[C@@H](NC(=O)c4ccccc4)c4ccccc4)C(C)=C1C3(C)C)[C@]1(OC(C)=O)CO[C@@H]1C[C@@H]2O + CN1CCN(c2cc(C(=O)Nc3cc4cc(-c5cnn(C)c5)ccc4cn3)ccn2)CC1 ... 1.35
4) COc1ccc([C@@H](O)c2cc(-c3ncnc4cc(N5CCOCC5)ccc34)c(F)cc2Cl)nn1 + CNC(=O)c1ccc(Nc2nc(OC3CCCC3)c3c(-c4ccc5nc(C)oc5c4)c[nH]c3n2)c(OC)c1 ... 45.7
5) Nc1ccn(C2OC(CO)C(O)C2(F)F)c(=O)n1 (stereo unspecified) + CN1CCN(c2cc(C(=O)Nc3cc4cc(-c5cnn(C)c5)ccc4cn3)ccn2)CC1 ... 1.01

*Q* So what viability, T/C did C=C(F)C(=O)N1CCN(c2nc(OCC3CCCN3C)nc3c2CCN(c2cccc4cccc(Cl)c24)C3)CC1CC#N (stereo unspecified) + CN1CCN(c2cc(C(=O)Nc3cc4cc(-c5cnn(C)c5)ccc4cn3)ccn2)CC1 get with 996289-038-R-J1-PDC complex spheroid viability?
*A* 1.8
